Entries and their measured koff follow.
Target: T1, recombinant human VEGF165 (human, UniProt P15692 27-191)
T1 construct: mature; Isoform VEGF165 of the entry; also called hVEGF165; hVEGF
T1 sequence (P15692 other isoform, or with tags, fused parts or gaps): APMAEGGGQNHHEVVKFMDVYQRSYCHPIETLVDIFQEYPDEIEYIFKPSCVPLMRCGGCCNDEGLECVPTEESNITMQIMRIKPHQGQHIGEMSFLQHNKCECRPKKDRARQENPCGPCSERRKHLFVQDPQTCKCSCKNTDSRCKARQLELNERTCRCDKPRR
Assay: Biacore SPR, VEGF immobilized, pH 5
Kindly provide the numeric value in s⁻¹ only, without the unit symbol.

Binder	koff, s⁻¹
567-max (scFv, VL and VH tied by name; also called Protein Nr; 874) scFv: EIVMTQSPSTLSASVGDRVIITCQADQSIYIWLSWYQQKPGKAPKLLIYKASTLESGVPSRFSGSGSGTQFTLTISSLQPDDFATYYCQNNAHYSTNGGTFGQGTKLTVLGGGGGSGGGGSGGGGSGGGGSEVQLVESGGGLVQPGGSLRLSCSVSGFSLSDYYMCWVRQAPGKGLEWVGCLDYFGSTDDASWAKGRFTISKDTSKNTVYLQMNSLRAEDTAVYYCARTDDSRGWGLNIWGQGTLVTVSS	0.000226

Asked: Could you tell me which koff is on file for 511-min (scFv, VL and VH tied by name; also called Protein Nr) scFv: EIVMTQSPSTLSASVGDRVIITCQASQSINIWCSWYQQKPGKAPKLLIYRASTLASGVPSRFSGSGSGAEFTLTISSLQPDDFATYYCQANYAYSAGYGAAFGQGTKLTVLGGGGGSGGGGSGGGGSGGGGSEVQLVESGGGLVQPGGSLRLSCAASGFSLNTYYMNWVRQAPGKGLEWVSIIAPDDTTYYASWAKSRFTISRDNSKNTLYLQMNSLRAEDTAVYYCAKSGDTTAWGADIWGQGTLVTVSS ?
Given back: 0.00128

Asked: Could you tell me which koff is on file for 509-min (scFv, VL and VH tied by name; also called Protein Nr; 854) scFv: EIVMTQSPSTLSASVGDRVIITCQASQNIRIWLSWYQQKPGKAPKLLIYKASTLESGVPSRFSGSGSGAEFTLTISSLQPDDFATYYCQNNAHYSTNGGTFGQGTKLTVLGGGGGSGGGGSGGGGSGGGGSEVQLVESGGGLVQPGGSLRLSCAASGFSLSSYYMCWVRQAPGKGLEWVSCLDYVGDTDYASWAKGRFTISRDNSKNTLYLQMNSLRAEDTAVYYCAKTDDSRGWGLNIWGQGTLVTVSS ?
Given back: 0.00114
